experiment: Cytotoxicity in mock-infected Vero-76 monolayers; settings: African green monkey (Cercopithecus aethiops), Vero-76 cell monolayers, mock-infected
metric: CC50

Here is how some compounds turned out for CC50.
Nc1nc2c(ncn2COCCO)c(=O)[nH]1 [ACG, acycloguanosine, reference compound]; > 100 µM
Nc1ccc(Cn2nc3cc(F)c(F)cc3n2)cc1 [11d]; > 100 µM

Request: Quick check: CC50 of COc1ccc(C(=O)Nc2ccc(Cn3nnc4ccccc43)cc2)cc1 [86c] ?
Result: 85 µM

Request: Requested read-out: CC50. Entry: COc1cc(C(=O)Nc2cccc(Cn3nnc4cc(Cl)c(Cl)cc43)c2)cc(OC)c1OC [41a]
Result: > 100 µM

Request: Would you mind telling me what CC50 value was observed for Cc1cc2nn(Cc3cccc(NC(=O)c4ccc(F)cc4)c3)nc2cc1C [25b] ?
Result: > 100 µM

Request: Given Cc1cc(CCCOc2c(C)cc(-c3noc(C(F)(F)F)n3)cc2C)on1 [Plec, pleconaril, reference compound] , state its recorded CC50.
Result: 77 µM

Request: Find the recorded CC50 belonging to Cc1cc2nnn(Cc3ccc(NC(=O)NC4CCCCC4)cc3)c2cc1C [100b] and report it.
Result: > 100 µM
